# Tested on: Escherichia coli TOP10;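 note: peptides expressed intracellularly from a pBAD plasmid library in pooled LB shake-flask culture, induced with 0.3% L-arabinose, DNA abundance read by NGS, three biological replicates, DESeq2 with apeglm shrinkage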
# EXPERIMENT DESCRIPTION: shrunken log2 fold change of peptide-encoding DNA abundance (4.5 h post-induction vs induction); higher = less antimicrobial activity (less host growth inhibition)
# EXPERIMENTAL PARAMETERS: time post-induction: 4.5 h; library: site-saturation at positions 5, 18, 19, 20
ASSAY READOUT: shrunken log2 fold change

RRIRMRPPRLPRPRPRPRCKPRP	0.198
RRIRVRPPRLPRPRPRPIFFPRP	0.125
RRIRPRPPRLPRPRPRPGEDPRP	0.461
RRIRPRPPRLPRPRPRPDMEPRP	-0.0437
RRIRIRPPRLPRPRPRPYWQPRP	-0.774
RRIRPRPPRLPRPRPRPPKDPRP	0.225

# batch: return shrunken log2 fold change for each of the 3 sequences below
1. RRIRNRPPRLPRPRPRPNFIPRP
2. RRIRWRPPRLPRPRPRPDQWPRP
3. RRIRRRPPRLPRPRPRPLCWPRP

[A]
1. -0.105
2. 0.399
3. 0.623

List shrunken log2 fold change for every entry below, keeping the order given.
1. RRIRGRPPRLPRPRPRPQSPPRP
2. RRIRLRPPRLPRPRPRPDAFPRP
3. RRIRHRPPRLPRPRPRPTKYPRP
4. RRIRGRPPRLPRPRPRPSMPPRP

[A]
1. 0.225
2. 0.0575
3. -0.345
4. 0.0931

Here are 2 sequences. What values of shrunken log2 fold change were reported for them?
1. RRIRYRPPRLPRPRPRPPCQPRP
2. RRIRSRPPRLPRPRPRPYHKPRP

[A]
-0.212
-0.404
